Could you please report measured IC50 for the items listed next?
Assay System: Serine/threonine-protein kinase PLK4 (Homo sapiens)
Sequence (O00444 whole entry): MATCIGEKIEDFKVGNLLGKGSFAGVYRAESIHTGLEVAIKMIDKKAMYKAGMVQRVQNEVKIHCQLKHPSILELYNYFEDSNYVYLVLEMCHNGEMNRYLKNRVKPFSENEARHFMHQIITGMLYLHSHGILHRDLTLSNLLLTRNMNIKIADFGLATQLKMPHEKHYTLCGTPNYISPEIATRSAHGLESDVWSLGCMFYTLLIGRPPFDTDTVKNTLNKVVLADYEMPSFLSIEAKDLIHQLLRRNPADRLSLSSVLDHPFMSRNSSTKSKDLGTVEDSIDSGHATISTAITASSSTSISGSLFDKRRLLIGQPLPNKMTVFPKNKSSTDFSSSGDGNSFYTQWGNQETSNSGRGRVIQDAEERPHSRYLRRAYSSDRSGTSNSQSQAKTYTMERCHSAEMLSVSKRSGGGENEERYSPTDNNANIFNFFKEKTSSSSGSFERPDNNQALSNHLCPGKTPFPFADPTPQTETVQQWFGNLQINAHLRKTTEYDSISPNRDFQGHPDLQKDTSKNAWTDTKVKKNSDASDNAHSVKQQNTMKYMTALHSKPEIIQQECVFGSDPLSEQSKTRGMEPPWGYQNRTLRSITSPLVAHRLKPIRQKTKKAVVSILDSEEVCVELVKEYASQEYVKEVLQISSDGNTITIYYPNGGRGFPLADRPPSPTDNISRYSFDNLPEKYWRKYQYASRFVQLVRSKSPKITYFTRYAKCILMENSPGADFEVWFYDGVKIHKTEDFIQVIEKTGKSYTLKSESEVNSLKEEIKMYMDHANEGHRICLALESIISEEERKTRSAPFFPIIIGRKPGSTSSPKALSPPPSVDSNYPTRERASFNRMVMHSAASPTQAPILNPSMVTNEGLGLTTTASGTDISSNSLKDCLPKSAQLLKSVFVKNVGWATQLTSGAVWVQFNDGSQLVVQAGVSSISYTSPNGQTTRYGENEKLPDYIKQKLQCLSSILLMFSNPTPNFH
Protocol: Inhibition of PLK4 (unknown origin) incubated for 1 hr in presence of kinase tracer 236 by FRET assay
The reply should contain only the number, in nM.

Recorded IC50 of Cc1cc(Nc2nc(NCc3ccc(F)cc3F)nc3c2cnn3C2CCN(C(=O)C3CC4(C3)CN(c3ccc5c(c3)C(=O)N(C3CCC(=O)NC3=O)C5=O)C4)CC2)n[nH]1 (stereo unspecified) , please.
75.2

Please report the recorded IC50 for Cc1cc(Nc2nc(NCc3ccc(F)cc3F)nc3c2cnn3C2CCN(C(=O)CCCCCCCCCCCCCCCCCOc3ccc4c(c3)C(=O)N(C3CCC(=O)NC3=O)C4=O)CC2)n[nH]1 (stereo unspecified) .
19.6

Can you share its IC50? I mean this compound: Cc1cc(Nc2nc(NCc3ccc(F)cc3F)nc3c2cnn3C2CCN(C(=O)CCCCCOc3ccc4c(c3)C(=O)N(C3CCC(=O)NC3=O)C4=O)CC2)n[nH]1 (stereo unspecified)
5.5

Looking for the measured IC50 of Cc1cc(Nc2nc(NCc3ccc(F)cc3F)nc3c2cnn3C2CCN(C(=O)CCCCCCCCCCCCCOc3ccc4c(c3)C(=O)N(C3CCC(=O)NC3=O)C4=O)CC2)n[nH]1 (stereo unspecified) , can you help?
154

Find the recorded IC50 belonging to Cc1cc(Nc2nc(NCc3ccc(F)cc3F)nc3c2cnn3C2CCN(C(=O)CCOCCOCCCOc3ccc4c(c3)C(=O)N(C3CCC(=O)NC3=O)C4=O)CC2)n[nH]1 (stereo unspecified) and report it.
37.9

Fill in: IC50 of Cc1cc(Nc2nc(NCc3ccc(F)cc3F)nc3c2cnn3C2CCN(C(=O)CCCCCCCCCOc3ccc4c(c3)C(=O)N(C3CCC(=O)NC3=O)C4=O)CC2)n[nH]1 (stereo unspecified) is ___
1080
